target: wild type HCV NS3/4A 1b protease enzyme (Hepatitis C virus genotype 1b); construct: 10× stocks of NS3/4A protease enzyme from Bioenza (Mountain View, Calif.); purchased Bioenza (Mountain View, Calif.); assay: biochemical; type: biochemical
Measured Endpoint: IC50

response.value for `C=C[C@@H]1C[C@]1(NC(=O)[C@@H]1C[C@@H](Oc2cc(-c3ccccc3)nc3cc(OC)ccc23)CN1C(=O)CNC(=O)CC)C(=O)NS(=O)(=O)c1ccccc1` (field: IC50) = 100 to 1000 nM

---

target: wild type HCV NS3/4A 1b protease enzyme (Hepatitis C virus genotype 1b, UniProt P26663); construct: 10× stocks of NS3/4A protease enzyme from Bioenza (Mountain View, Calif.); purchased Bioenza (Mountain View, Calif.); assay: HCV Protease FRET Assay (IC50_APP), wild type; type: biochemical; conditions: read-out: IC50_APP, WT; apparent IC50, wild type NS3/4A 1b
Sequence (P26663 1658-1711): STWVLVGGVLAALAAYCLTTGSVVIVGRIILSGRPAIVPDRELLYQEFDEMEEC
Sequence (P26663 1027-1208): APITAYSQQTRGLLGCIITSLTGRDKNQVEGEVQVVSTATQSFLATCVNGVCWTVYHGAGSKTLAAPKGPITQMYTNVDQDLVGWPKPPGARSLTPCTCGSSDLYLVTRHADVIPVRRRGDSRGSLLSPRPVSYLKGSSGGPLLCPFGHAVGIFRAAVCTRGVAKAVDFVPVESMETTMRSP
pIC50: −log10 of the molar value.
Measured Endpoint: pIC50

Study these solved cases before continuing.
Compound: C=C[C@@H]1C[C@]1(NC(=O)[C@@H]1C[C@@H](Oc2cc(-c3ccccc3)nc3cc(OC)ccc23)CN1C(=O)[C@H](CCNC(=O)CCl)NC(=O)OC(C)(C)C)C(=O)NS(=O)(=O)c1ccccc1 [Compound I-4]
Measured Endpoint: pIC50
Reported Value: > 8.00
--
Compound: C=CC(=O)N[C@@H](C(=O)N1C[C@H](Oc2nccc3cc(OC)ccc23)C[C@H]1C(=O)N[C@]1(C(=O)NS(=O)(=O)C2CC2)C[C@H]1C=C)C(C)(C)O [Compound I-130]
Measured Endpoint: pIC50
Reported Value: 7.00 to 8.00
--
Compound: [2H]C([2H])([2H])C(=CC(=O)CC[C@H](NC(=O)OC(C)(C)C)C(=O)N1C[C@H](Oc2nccc3cc(OC)ccc23)C[C@H]1C(=O)N[C@]1(C(=O)NS(=O)(=O)C2CC2)C[C@H]1C=C)C([2H])([2H])[2H] [Compound I-142]
Measured Endpoint: pIC50
Reported Value: > 8.00

Batch of 5 compounds: report pIC50 for each.
1. C=C(C)C(=O)C[C@H](NC(=O)OC(C)(C)C)C(=O)N1C[C@H](Oc2nccc3cc(OC)ccc23)C[C@H]1C(=O)N[C@]1(C(=O)NS(=O)(=O)C2CC2)C[C@H]1CC [Compound I-140]
2. C=CC(=O)N[C@@H](C(=O)N1C[C@H](Oc2cc(-c3ccccc3)nc3cc(OC)ccc23)C[C@H]1C(=O)N[C@]1(C(=O)NS(=O)(=O)C2CC2)C[C@H]1C=C)C(C)(C)C [Compound I-65]
3. C=CC1CC1(NC(=O)C1CC(n2nnc(-c3ccc(OC)cc3)n2)CN1C(=O)C(CCC(=O)C=C(C)C)NC(=O)OC(C)(C)C)C(=O)NS(=O)(=O)C1CC1 (stereo not drawn) [Compound I-107]
4. C=C[C@@H]1C[C@]1(NC(=O)[C@@H]1C[C@@H](Oc2cc(-c3ccccc3)nc3cc(OC)ccc23)CN1C(=O)[C@H](CCC(=O)N1CCC1=O)NC(=O)OC(C)(C)C)C(=O)NS(=O)(=O)C1CC1 [Compound I-70]
5. C=C[C@@H]1C[C@]1(NC(=O)[C@@H]1C[C@@H](Oc2cc(-c3ccccc3)nc3cc(OC)ccc23)CN1C(=O)[C@H](CCC(=O)C=C(C)C)NC(=O)OC(C)(C)C)C(=O)NS(=O)(=O)C1CC1 [Compound I-68]

> 8.00
6.00 to 7.00
> 8.00
> 8.00
> 8.00

Batch of 4 compounds: report pIC50 for each.
1. C=C[C@@H]1C[C@]1(NC(=O)[C@@H]1C[C@@H](Oc2cc(-c3ccccc3)nc3cc(OC)ccc23)CN1C(=O)[C@H](CCC(=O)N[C@H]1COC1=O)NC(=O)OC(C)(C)C)C(=O)NS(=O)(=O)C1CC1 [Compound I-69]
2. CC[C@@H]1C[C@]1(NC(=O)[C@@H]1C[C@@H](Oc2nccc3cc(OC)ccc23)CN1C(=O)[C@H](CCC(=O)C=C(C)C)NC(=O)OC(C)(C)C)C(=O)NS(=O)(=O)C1CC1 [Compound I-114]
3. C=CC(=O)N[C@@H](C(=O)N1C[C@H](Oc2nccc3cc(OC)ccc23)C[C@H]1C(=O)N[C@]1(C(=O)NS(=O)(=O)C2CC2)C[C@H]1C=C)C(C)C [Compound I-101]
4. C=C[C@@H]1C[C@]1(NC(=O)[C@@H]1C[C@@H](Oc2cc(-c3ccccc3)nc3cc(OC)ccc23)CN1C(=O)[C@H](CN(C)C(=O)[C@H](Cl)c1ccccc1)NC(=O)OC(C)(C)C)C(=O)NS(=O)(=O)c1ccccc1 [Compound I-33]

["> 8.00", "> 8.00", "> 8.00", "> 8.00"]
